# study-target: NAD-dependent protein deacetylase sirtuin-1 (Homo sapiens, UniProt Q96EB6)
# Sequence (Q96EB6 whole entry, the tested form may be a part): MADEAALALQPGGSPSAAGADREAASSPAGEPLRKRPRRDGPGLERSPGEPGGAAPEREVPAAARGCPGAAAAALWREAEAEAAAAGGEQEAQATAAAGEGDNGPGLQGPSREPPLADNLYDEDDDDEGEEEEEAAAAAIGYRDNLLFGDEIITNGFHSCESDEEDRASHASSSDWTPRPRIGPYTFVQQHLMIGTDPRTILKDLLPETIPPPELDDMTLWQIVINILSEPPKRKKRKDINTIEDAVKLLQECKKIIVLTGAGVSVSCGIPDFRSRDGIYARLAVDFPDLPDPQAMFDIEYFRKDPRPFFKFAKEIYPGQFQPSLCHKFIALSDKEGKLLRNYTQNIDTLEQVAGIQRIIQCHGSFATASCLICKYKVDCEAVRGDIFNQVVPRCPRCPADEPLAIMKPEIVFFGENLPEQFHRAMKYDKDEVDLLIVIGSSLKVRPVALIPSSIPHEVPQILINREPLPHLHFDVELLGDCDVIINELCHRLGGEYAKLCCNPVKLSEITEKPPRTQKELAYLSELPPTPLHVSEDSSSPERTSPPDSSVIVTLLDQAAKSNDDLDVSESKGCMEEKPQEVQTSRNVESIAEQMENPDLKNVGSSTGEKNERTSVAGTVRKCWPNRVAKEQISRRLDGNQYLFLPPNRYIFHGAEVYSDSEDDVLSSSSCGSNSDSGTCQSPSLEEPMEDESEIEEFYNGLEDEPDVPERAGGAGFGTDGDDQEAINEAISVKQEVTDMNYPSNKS
# experimental-protocol: Inhibition of N-terminal hexa-His-tagged human SIRT1 (156 to 664 residues) expressed in Escherichia coli BL21 (DE3) assessed as deacetylation of Abz-labeled acetyl peptide using Abz-GVLKacAYNO2GY-NH2 peptide as substrate incubated for 30 mins in presence of NAD+ by fluorescence microplate reader assay
# condition-set: read-out: IC50
Parameter class (string): assigned from measured IC50. Ranges: class A (below 2 µM), class B (2 µM to below 5 µM), class C (5 µM or more)

Input line: Please let me know in which category the item Cc1cc(C=C2C(=O)OC(c3ccccc3)OC2=O)ccc1O (stereo unspecified) belongs.
Output line: class C

Input line: Class? Entry: COc1cc(OC)c(C=C2C(=O)OC(C)(c3ccccc3)OC2=O)cc1Br (stereo unspecified)
Output line: class C

Input line: Which of the defined bands does the recorded IC50 of COc1cc(C=C2C(=O)OC(c3ccccc3)OC2=O)cc(Cc2ccccc2)c1O (stereo unspecified) sit within?
Output line: class B

Input line: Could you place O=C1OC(c2ccccc2)OC(=O)C1=Cc1cc(Br)c(O)c(OCc2ccccc2)c1 (stereo unspecified) in its proper category? Many thanks.
Output line: class A

Input line: Just checking, what class would you give COc1cc(C=C2C(=O)OC(c3ccccc3)OC2=O)ccc1OCc1ccc2c(c1)OCO2 (stereo unspecified) here?
Output line: class C

Input line: Form field 'band' for O=C1OC(c2ccccc2)OC(=O)C1=Cc1ccc(Cl)cc1 (stereo unspecified)
Output line: class C

Input line: Category of COc1cc(C=C2C(=O)OC(C)(c3ccccc3)OC2=O)ccc1OCc1cccc(C(=O)O)c1 (stereo unspecified) , please.
Output line: class C

Input line: # bin lookup: classify COc1cc(C=C2C(=O)OC(c3ccccc3)OC2=O)cc(C(=O)OCc2ccccc2)c1O (stereo unspecified) by its IC50
Output line: class B

Input line: Pick a category. Item: CCOc1cc(C=C2C(=O)OC(c3ccccc3)OC2=O)cc([N+](=O)[O-])c1O (stereo unspecified)
Output line: class B

Input line: Tag the class for O=C1OC(c2ccccc2)OC(=O)C1=Cc1ccc(O)c(F)c1 (stereo unspecified)
Output line: class B

Input line: Place this molecule in its band: CCOc1cc(C=C2C(=O)OC(C)(c3ccccc3)OC2=O)ccc1O (stereo unspecified)
Output line: class C

Input line: Sort into band: COc1ccc(OC)c(C=C2C(=O)OC(C)(c3ccccc3)OC2=O)c1 (stereo unspecified)
Output line: class C

Input line: Exercise: read the entry O=C1OC(c2ccccc2)OC(=O)C1=Cc1cc(I)c(O)c(I)c1 (stereo unspecified) and state which class it falls under.
Output line: class A

Input line: Into which bin does this molecule go? O=C1OC(c2ccccc2)OC(=O)C1=Cc1cc(I)c(O)c(OCc2ccccc2)c1 (stereo unspecified)
Output line: class A

Input line: Form: Item = COc1cc(C=C2C(=O)OC(c3ccccc3)OC2=O)cc(Cl)c1O (stereo unspecified) ; Class = ?
Output line: class A

Input line: Hi there! Could you help me figure out the category for O=C1OC(c2ccccc2)OC(=O)C1=Cc1ccc(O)c(OCC2CC2)c1 (stereo unspecified) please?
Output line: class B

Input line: Form field 'band' for O=C1OC(c2ccccc2)OC(=O)C1=Cc1ccc(O)cc1F (stereo unspecified)
Output line: class B

Input line: Band for the recorded IC50 of O=C1OC(c2ccccc2)OC(=O)C1=Cc1ccc(O)c(Br)c1 (stereo unspecified) ?
Output line: class A

Input line: Kindly state the category for this molecule: O=C1OC(c2ccccc2)OC(=O)C1=Cc1cc(Cl)c(O)c(Cl)c1 (stereo unspecified)
Output line: class A

Input line: Quick check: band for O=C1OC(c2ccccc2)OC(=O)C1=Cc1cc(F)c(O)c(F)c1 (stereo unspecified)
Output line: class B

Input line: Please report the category associated with O=C1OC(c2ccccc2)OC(=O)C1=Cc1ccc(O)cc1Br (stereo unspecified) , nothing else.
Output line: class B
